Assay: Quantitative highthroughput screen to assess conditional lethalithy of NOMO1 cells grown in RPMI1640 with dialyzed fetal bovine serum (RPMI+ds) (AID 1963877); note: nearly all actives have a fitted effect of over 30% in size
Experimental context: NOMO1 in RPMI+dialyzed FBS viability, ATP luminescence, 48 h; series mostly up to 45.8 µM
Results filed as inconclusive are left out. Calls of active or inactive are those of the source. Calls come from the whole dose curve; as a rule, active = well fitted cell-killing curve with a large enough effect; inconclusive = small, poorly fitted or top-dose-only effect; inactive = flat fitted curve, though single readings scatter.
Measured property: outcome

INSERT INTO results (record_smiles, reading) VALUES
  ('CC(=O)NC[C@H]1CN(c2ccc(N3CCOCC3)c(F)c2)C(=O)O1', 'inactive'),
  ('COc1cc([C@H]2Oc3cc([C@H]4Oc5cc(O)cc(O)c5C(=O)[C@H]4O)ccc3O[C@H]2CO)ccc1O', 'inactive'),
  ('O=C(CCc1ccc(O)cc1)c1c(O)cc(O)cc1O', 'inactive');
